System under test: human CB2 (Homo sapiens (Human), UniProt P34972)
Protocol details: In vitro cannabinoid receptor activity assay (calcium mobilization, FLIPR) in CHO cells expressing human CB2 and Gαq16
Assay type: cell-based
Experimental setup: percentage of the maximum CP55940 signal, hCB2
Method: In vitro cannabinoid receptor activity assay. […] Cells were incubated at 37° C. for 1 hr and then stimulated with various concentrations of a test agent using a FLIPR Tetra plate-reader, which automatically added the agonist at 10× concentration to each well after reading baseline values for ˜17 sec. Agonist-mediated change in fluorescence (488 nm excitation, 525 nm emission) was monitored in each well at 1 sec intervals for 60 sec and reported for each well. […]
Returns the class for an entry based on its hCB2 Ca Span. Class ranges: low: < 30%; intermediate: ≥ 30% and < 50%; high: ≥ 50%

Examples from the recorded data:
compound=CCCCCn1nc(C(=O)NC(C)(C)c2cccc(C(N)=O)c2)c2ccccc21 system_under_test="human CB2 (Homo sapiens (Human), UniProt P34972)" discrete_label=intermediate
compound=CCCCCn1nc(C(=O)NC(C)(C)c2cccc(NC(N)=O)c2)c2ccccc21 system_under_test="human CB2 (Homo sapiens (Human), UniProt P34972)" discrete_label=intermediate
compound=CC(C)(NC(=O)c1nn(Cc2ccc(F)cc2)c2ccccc12)C1CCN(C(N)=O)CC1 system_under_test="human CB2 (Homo sapiens (Human), UniProt P34972)" discrete_label=high
compound=CC(C)(NC(=O)c1nn(CC2CCOCC2)c2ccccc12)c1cccc(C(N)=O)c1 system_under_test="human CB2 (Homo sapiens (Human), UniProt P34972)" discrete_label=high
compound=CC(C)(NC(=O)c1nn(Cc2ccc(F)cc2)c2ccccc12)c1cccc(NC(N)=O)c1 system_under_test="human CB2 (Homo sapiens (Human), UniProt P34972)" discrete_label=intermediate

Quick check: band for `CC(C)(NC(=O)c1nn(Cc2ccc(F)cc2F)c2ccccc12)c1cccc(C(N)=O)c1`
low

Quick check: band for CC(C)(NC(=O)c1nn(Cc2ccc(F)cc2)c2ccccc12)C1CCCN(CC(N)=O)C1 (centres unmarked)
low

---

System under test: human CB2 (Homo sapiens (Human), UniProt P34972)
Protocol details: In vitro cannabinoid receptor activity assay (calcium mobilization, FLIPR) in CHO cells expressing human CB2 and Gαq16
Format: cell-based
Experimental setup: percentage of the maximum CP55940 signal, hCB2
In this section, each of the molecules is paired with its reported hCB2 Ca Span.
Write down the numeric answer in % and omit the unit.

Known results for molecules:
molecule="CC(C)(NC(=O)c1nn(Cc2ccc(F)cc2)c2ccccc12)C1CCN(CC(N)=O)CC1 [Example 32]" number=62
molecule="CC(C)(NC(=O)c1nn(CC2CCC(F)(F)CC2)c2ccccc12)c1cccc(NC(N)=O)c1 [Example 22]" number=51
molecule="CC(C)(NC(=O)c1nn(CC2CCC(F)(F)CC2)c2ccccc12)c1cccc(C(N)=O)c1 [Example 15]" number=38
molecule="CC(C)(NC(=O)c1nn(CC2CCOCC2)c2ccccc12)c1cccc(NC(N)=O)c1 [Example 23]" number=61
molecule="CNC(=O)Nc1cccc(C(C)(C)NC(=O)c2nn(CCCCCF)c3ccccc23)c1 [Example 28]" number=61

Reported hCB2 Ca Span of CC(C)(NC(=O)c1nn(CCCCC(F)(F)F)c2ccccc12)c1cccc(C(N)=O)c1 [Example 19] : 39

Reported hCB2 Ca Span of CC(C)(NC(=O)c1nn(Cc2ccc(F)cc2)c2ccccc12)C1CCCN(C(N)=O)C1 (centres unmarked) [Example 29] : 36

Reported hCB2 Ca Span of CNC(=O)Nc1cccc(C(C)(C)NC(=O)c2nn(CC3CCC(F)(F)CC3)c3ccccc23)c1 [Example 26] : 61
